target: recombinant soluble homotrimeric HA of A/California/4/09 (H1N1) (Influenza A virus A/California/04/2009(H1N1)); assay: trimeric HA microarray, transfection supernatant set 4; conditions: remark: other sources report otherwise
property: log10 of Trimeric HA Binding: RLU (log10 of the value in RLU)

[[record]]
binder = "TCN-523 (5248_A17) (antibody, V domains shown) VH: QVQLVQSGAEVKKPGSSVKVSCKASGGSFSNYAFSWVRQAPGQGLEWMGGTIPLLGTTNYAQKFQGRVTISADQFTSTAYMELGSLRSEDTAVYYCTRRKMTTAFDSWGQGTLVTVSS VL: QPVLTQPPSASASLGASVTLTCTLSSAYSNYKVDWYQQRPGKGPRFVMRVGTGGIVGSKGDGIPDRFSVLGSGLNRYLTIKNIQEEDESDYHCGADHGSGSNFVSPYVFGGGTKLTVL"
measuredresult = 4.46

[[record]]
binder = "TCN-504 (3251_K17) (antibody, V domains shown) VH: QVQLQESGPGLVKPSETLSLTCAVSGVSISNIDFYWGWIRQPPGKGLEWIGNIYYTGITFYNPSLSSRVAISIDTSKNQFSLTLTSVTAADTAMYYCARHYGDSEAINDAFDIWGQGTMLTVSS VL: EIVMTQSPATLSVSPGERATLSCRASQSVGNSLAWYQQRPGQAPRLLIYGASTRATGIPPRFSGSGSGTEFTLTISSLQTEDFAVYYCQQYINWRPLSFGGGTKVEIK"
measuredresult = 2.74

[[record]]
binder = "TCN-535 (5246_P19) (antibody, V domains shown) VH: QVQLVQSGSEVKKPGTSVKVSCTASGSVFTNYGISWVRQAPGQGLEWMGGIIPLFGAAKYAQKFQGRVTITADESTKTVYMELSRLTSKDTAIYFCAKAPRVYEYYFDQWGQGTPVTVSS VL: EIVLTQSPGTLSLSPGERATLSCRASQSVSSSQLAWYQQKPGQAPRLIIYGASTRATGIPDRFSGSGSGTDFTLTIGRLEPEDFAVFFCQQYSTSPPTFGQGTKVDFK"
measuredresult = 4.40

[[record]]
binder = "TCN-534 (5249_B02) (antibody, V domains shown) VH: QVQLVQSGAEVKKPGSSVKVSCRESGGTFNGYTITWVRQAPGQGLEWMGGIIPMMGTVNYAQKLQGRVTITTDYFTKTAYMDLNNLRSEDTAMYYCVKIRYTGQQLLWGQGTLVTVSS VL: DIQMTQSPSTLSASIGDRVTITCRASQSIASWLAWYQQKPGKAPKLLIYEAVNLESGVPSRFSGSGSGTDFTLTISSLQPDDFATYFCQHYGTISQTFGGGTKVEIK"
measuredresult = 4.43

[[record]]
binder = "TCN-536 (5095_N01) (antibody, V domains shown) VH: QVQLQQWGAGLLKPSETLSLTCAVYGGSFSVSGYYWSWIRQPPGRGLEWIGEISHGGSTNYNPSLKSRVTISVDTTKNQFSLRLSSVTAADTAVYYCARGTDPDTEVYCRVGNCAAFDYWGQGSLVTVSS VL: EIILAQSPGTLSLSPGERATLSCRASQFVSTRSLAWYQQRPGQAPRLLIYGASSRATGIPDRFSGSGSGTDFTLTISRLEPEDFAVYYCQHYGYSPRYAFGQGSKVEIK"
measuredresult = 1.69


The measurements presented in this section are drawn from patent US20150086555A1.
